Below, each of the compounds is paired with its reported mortality at 50 µg/cm2 value.
- System: Beet Armyworm (Spodoptera exigua)
- experiment.description: Insecticidal diet-surface test for beet armyworm
- Type: in vivo
- run.parameters: 120 h, second-instar larvae on treated diet, 50 μg/cm^2 on diet surface, 5 days after treatment, 8 insects per treatment, read-out: LAPHEG AVG % Mortality (50 μg/cm^2)
Please state the figure in %; there is no need to write the unit.

- compound: "O=C(Nc1ccc(C(F)(F)F)cc1)Nc1nc(NCC(F)(F)F)cc(OCC(F)(F)F)n1"
  assayed.target: "Beet Armyworm (Spodoptera exigua)"
  endpoint.value: 100
- compound: "CN(C(=O)Nc1cc(OCC(F)(F)F)nc(OCC(F)(F)F)n1)c1ccc(C(F)(F)F)nc1"
  assayed.target: "Beet Armyworm (Spodoptera exigua)"
  endpoint.value: 100
- compound: "CN(C(=O)Nc1cc(C(F)(F)F)cc(OCC(F)(F)F)n1)c1ccc(Br)cc1"
  assayed.target: "Beet Armyworm (Spodoptera exigua)"
  endpoint.value: 50
- compound: "CC(Oc1ccc(NC(=O)Nc2nc(OCC(F)(F)F)cc(OCC(F)(F)F)n2)cc1)C(F)(F)F (centres unmarked)"
  assayed.target: "Beet Armyworm (Spodoptera exigua)"
  endpoint.value: 100

Challenge: What is its mortality at 50 µg/cm2 for Beet Armyworm (Spodoptera exigua)? Entry: CN(C(=O)Nc1cc(OCC(F)(F)F)nc(OCC(F)(F)F)n1)c1ccc(Cl)cc1
Response given: 50

Challenge: Could you share what mortality at 50 µg/cm2 was measured for O=C(O)CN(C(=O)Nc1nc(OCC(F)(F)F)cc(OCC(F)(F)F)n1)c1ccc(OC(F)(F)F)cc1 , tested on Beet Armyworm (Spodoptera exigua)?
Response given: 100

Challenge: Identify the measured mortality at 50 µg/cm2 of COCCOCN(C(=O)Nc1nc(OCC(F)(F)F)cc(OCC(F)(F)F)n1)c1ccc(C(F)(F)F)cc1 for Beet Armyworm (Spodoptera exigua).
Response given: 100

Challenge: Request: mortality at 50 µg/cm2, test system Beet Armyworm (Spodoptera exigua), entry CSc1ccc(NC(=O)Nc2nc(OCC(F)(F)F)cc(OCC(F)(F)F)n2)cc1
Response given: 0

###

- Test system: Beet Armyworm (Spodoptera exigua)
- experiment.description: Insecticidal diet-surface test for beet armyworm
- Assay type: in vivo
- run.parameters: 120 h, second-instar larvae on treated diet, 50 μg/cm^2 on diet surface, 5 days after treatment, 8 insects per treatment, read-out: LAPHEG AVG % Mortality (50 μg/cm^2)
measured.parameter: mortality at 50 µg/cm2 (%)
Numbers only; they are read as %.

See these solved cases before continuing.
- compound: "CN(C(=O)Nc1nc(OCC(F)(F)F)nc(OCC(F)(F)F)n1)c1ccc(Br)cc1 [Compound 119]"
  reading.unit: "%"
  mortality at 50 µg/cm2: 100
- compound: "COCN(C(=O)N(COCc1ccccc1)c1nc(OCC(F)(F)F)cc(OCC(F)(F)F)n1)c1ccc(C(F)(F)F)cc1 [Compound 37]"
  reading.unit: "%"
  mortality at 50 µg/cm2: 100
- compound: "CN(C(=O)Nc1nc(OCC(F)(F)F)cc(OCC(F)(F)F)n1)c1ccc(Cl)cc1Cl [Compound 149]"
  reading.unit: "%"
  mortality at 50 µg/cm2: 100

# context switch: different compound, same mortality at 50 µg/cm2
Challenge: Consider the compound O=C(Nc1ccc(C(F)(F)F)cc1)Nc1nc(OCC(F)(F)F)cc(SCC(F)(F)F)n1 [Compound 6] and give its measured mortality at 50 µg/cm2.
Response given: 0

###

- Test system: Beet Armyworm (Spodoptera exigua)
- experiment.description: Insecticidal diet-surface test for beet armyworm
- Format: in vivo
- run.parameters: 120 h, second-instar larvae on treated diet, 50 μg/cm^2 on diet surface, 5 days after treatment, 8 insects per treatment, read-out: LAPHEG AVG % Mortality (50 μg/cm^2)
measured.parameter: mortality at 50 µg/cm2
Please answer in the form of a number followed by its unit of measurement.

Please review the following examples before continuing.
- smiles: "CCCN(C(=O)Nc1nc(OCC(F)(F)F)cc(OCC(F)(F)F)n1)c1ccc(OC(F)(F)F)cc1"
  measured.parameter: "mortality at 50 µg/cm2"
  endpoint.value: "100%"
- smiles: "Cc1c(OCC(F)(F)F)nc(NC(=O)Nc2ccc(C(F)(F)F)nc2)nc1OCC(F)(F)F"
  measured.parameter: "mortality at 50 µg/cm2"
  endpoint.value: "100%"

Challenge: Suppose we examine the compound COCCOCN(C(=O)N(COCc1ccccc1)c1nc(OCC(F)(F)F)cc(OCC(F)(F)F)n1)c1ccc(C(F)(F)F)cc1 ; what mortality at 50 µg/cm2 value has been reported?
Response given: 100%

Challenge: For CN(C(=O)Nc1nc(OCC(F)(F)F)cc(OCC(F)(F)F)n1)c1ccc(F)cc1 , what is its reported mortality at 50 µg/cm2?
Response given: 100%

Challenge: Given the compound O=C(Nc1ccc(Br)nc1)Nc1cc(C(F)(F)F)cc(OCC(F)(F)F)n1 , what is its reported mortality at 50 µg/cm2?
Response given: 100%

Challenge: Entry CN(C(=O)Nc1cc(C(F)(F)F)cc(OCC(F)(F)F)n1)c1ccc(C(F)(F)F)nc1 : reported mortality at 50 µg/cm2 = ?
Response given: 75%

Challenge: Consider the compound shown here: O=C(Nc1nc(OCC(F)(F)F)cc(OCC(F)(F)F)n1)N(CCF)c1ccc(OC(F)(F)F)cc1 What is its recorded mortality at 50 µg/cm2?
Response given: 100%

Challenge: Fill in the blank: the reported mortality at 50 µg/cm2 of CN(C(=O)Nc1nc(OCC(F)(F)F)cc(OCC(F)(F)F)n1)c1ccc(F)cn1 is ____.
Response given: 88%

###

- Tested on: Beet Armyworm (Spodoptera exigua)
- experiment.description: Insecticidal diet-surface test for beet armyworm
- Format: in vivo
- run.parameters: 120 h, second-instar larvae on treated diet, 50 μg/cm^2 on diet surface, 5 days after treatment, 8 insects per treatment, read-out: LAPHEG AVG % Mortality (50 μg/cm^2)
The reader will find reported mortality at 50 µg/cm2 values listed item by item below.
Express your answer in %, writing the number without its unit.

Worked cases, answers included:
- smiles: "CC(C)OCN(C(=O)N(COCc1ccccc1)c1nc(OCC(F)(F)F)cc(OCC(F)(F)F)n1)c1ccc(Br)cc1"
  measured.parameter: "mortality at 50 µg/cm2"
  endpoint.value: 100
- smiles: "O=C(Nc1ccc(C(F)(F)F)cc1)Nc1cc(OCC(F)(F)F)nc(OCC(F)(F)F)n1"
  measured.parameter: "mortality at 50 µg/cm2"
  endpoint.value: 100
- smiles: "N#Cc1ccc(NC(=O)Nc2nc(OCC(F)(F)F)cc(OCC(F)(F)F)n2)cc1"
  measured.parameter: "mortality at 50 µg/cm2"
  endpoint.value: 0

Challenge: Quick one: mortality at 50 µg/cm2 of CCOCN(C(=O)Nc1nc(OCC(F)(F)F)cc(OCC(F)(F)F)n1)c1ccc(C(F)(F)F)nc1 ?
Response given: 100

###

- System: Beet Armyworm (Spodoptera exigua)
- experiment.description: Insecticidal diet-surface test for beet armyworm
- Format: in vivo
- run.parameters: 120 h, second-instar larvae on treated diet, 50 μg/cm^2 on diet surface, 5 days after treatment, 8 insects per treatment, read-out: LAPHEG AVG % Mortality (50 μg/cm^2)
// reported mortality at 50 µg/cm2 for each item listed

Recorded mortality at 50 µg/cm2, per entry:
- compound: "CN(C(=O)Nc1nc(OCC(F)(F)F)cc(OCC(F)(F)F)n1)c1ccc(C#N)cc1"
  mortality at 50 µg/cm2: "100%"
- compound: "O=C(Nc1ccc(OC(F)(F)F)cc1)Nc1nc(OCC(F)(F)C(F)(F)F)cc(OCC(F)(F)C(F)(F)F)n1"
  mortality at 50 µg/cm2: "0%"
- compound: "Cc1c(OCC(F)(F)F)nc(NC(=O)N(C)c2ccc(Br)cc2)nc1OCC(F)(F)F"
  mortality at 50 µg/cm2: "100%"
- compound: "CC1(COc2cc(OCC(F)(F)F)nc(NC(=O)Nc3ccc(C(F)(F)F)cc3)n2)CC1(Cl)Cl (centres unmarked)"
  mortality at 50 µg/cm2: "100%"

# context switch: different compound, same mortality at 50 µg/cm2
Challenge: Fill in the recorded mortality at 50 µg/cm2 for this compound, with Beet Armyworm (Spodoptera exigua) as test system: COC(=O)CN(C(=O)Nc1nc(OCC(F)(F)F)cc(OCC(F)(F)F)n1)c1ccc(OC(F)(F)F)cc1
Response given: 100%

###

- System: Beet Armyworm (Spodoptera exigua)
- experiment.description: Insecticidal diet-surface test for beet armyworm
- Type: in vivo
- run.parameters: 120 h, second-instar larvae on treated diet, 50 μg/cm^2 on diet surface, 5 days after treatment, 8 insects per treatment, read-out: LAPHEG AVG % Mortality (50 μg/cm^2)
measured.parameter: mortality at 50 µg/cm2 (%)
Kindly provide the numeric value in % only, without the unit symbol.

- smiles: "Cc1c(OCC(F)(F)F)nc(NC(=O)Nc2ccc(C(F)(F)F)cc2)nc1OCC(F)(F)F"
  assayed.target: "Beet Armyworm (Spodoptera exigua)"
  endpoint.value: 88
- smiles: "O=C(Nc1ccc(C(F)(F)C(F)(F)F)cc1)Nc1nc(OCC(F)(F)F)cc(OCC(F)(F)F)n1"
  assayed.target: "Beet Armyworm (Spodoptera exigua)"
  endpoint.value: 100
- smiles: "O=C(Nc1ccc(Cl)nc1)Nc1nc(OCC(F)(F)F)cc(OCC(F)(F)F)n1"
  assayed.target: "Beet Armyworm (Spodoptera exigua)"
  endpoint.value: 100
- smiles: "O=C(Nc1ccc(C(F)(F)F)cc1)Nc1nc(OCC(F)(F)F)cc(OCC(F)(F)F)n1"
  assayed.target: "Beet Armyworm (Spodoptera exigua)"
  endpoint.value: 100

From here, focus on the item given below.
Challenge: Give the measured mortality at 50 µg/cm2 of CN(C(=O)Nc1nc(OCC(F)(F)F)cc(OCC(F)(F)F)c1F)c1ccc(OC(F)(F)F)cc1 .
Response given: 100
